TARGET_OR_TEST_SYSTEM: human Edg-1(S1P1) (Homo sapiens, UniProt P21453)
Construct: expressed in transfected cells; host or cells: HEK-293
Sequence (P21453 whole entry): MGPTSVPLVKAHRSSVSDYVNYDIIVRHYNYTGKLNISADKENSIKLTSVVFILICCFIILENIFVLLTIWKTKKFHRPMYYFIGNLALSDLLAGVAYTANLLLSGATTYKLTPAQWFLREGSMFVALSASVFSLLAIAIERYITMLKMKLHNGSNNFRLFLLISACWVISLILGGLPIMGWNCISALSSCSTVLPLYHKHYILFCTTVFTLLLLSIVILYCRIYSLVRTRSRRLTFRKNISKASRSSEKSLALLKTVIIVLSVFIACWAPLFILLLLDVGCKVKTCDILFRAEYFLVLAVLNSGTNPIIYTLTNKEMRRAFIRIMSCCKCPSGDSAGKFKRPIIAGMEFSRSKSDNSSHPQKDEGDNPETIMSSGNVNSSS
MEASUREMENT_NOTES: Cell system binding test: inhibition of [3H]-S1P binding to Edg-1(S1P1) gene transferred HEK-293 cells
CONDITION_LABEL: 10 μM compound, [3H]-S1P 10 nM, read-out: Cell system binding test % inhibition (10 μM)
MEASUREMENT_NAME: inhibition at 10 µM (%)

a = CCn1c(OC)nnc1[C@@H](C)NS(=O)(=O)c1ccc(NC(C)=O)cc1
b = C=CCSc1nnc(CNS(=O)(=O)c2ccc(Cl)cc2)n1CC
Record comparison, field inhibition at 10 µM: mark the lower of a and b . Selection: enter the item's label.
a

a = CCOc1nnc([C@@H](C)NS(=O)(=O)c2cc3ccccc3s2)n1CC
b = C=CCSc1nnc([C@@H](Cc2ccccc2)NS(=O)(=O)c2ccc(Cl)cc2)n1CCCC
Would you let me know which has the greater inhibition at 10 µM value, a or b ? Selection: enter the item's label.
a

====

TARGET_OR_TEST_SYSTEM: human Edg-1(S1P1) (Homo sapiens, UniProt P21453)
Construct: expressed in transfected cells; host or cells: HEK-293
MEASUREMENT_NOTES: Membrane system binding test: inhibition of [33P]-S1P binding to the membrane fraction of Edg-1(S1P1) gene transferred HEK-293 cells
CONDITION_LABEL: 10 μM compound; [33P]-S1P 0.1 nM; membrane fraction of Edg-1(S1P1) gene transferred HEK-293 cells; read-out: Membrane system binding test % inhibition (10 μM)
MEASUREMENT_NAME: inhibition at 10 µM (%)

See these solved cases before continuing.
INSERT INTO assay_data (line_notation, target_or_test_system, observed) VALUES
  ('CCn1c(OCC(C)C)nnc1[C@@H](C)NS(=O)(=O)c1ccc(Cl)cc1', 'human Edg-1(S1P1) (Homo sapiens, UniProt P21453)', 89.6),
  ('CCn1c(SCc2ccccc2C)nnc1[C@@H](C)NS(=O)(=O)c1ccc(Cl)cc1', 'human Edg-1(S1P1) (Homo sapiens, UniProt P21453)', 99.1),
  ('CCn1c(OC)nnc1[C@@H](C)NS(=O)(=O)c1ccc2c(c1)OCCO2', 'human Edg-1(S1P1) (Homo sapiens, UniProt P21453)', 69.4),
  ('CCn1c(OC)nnc1[C@@H](C)NS(=O)(=O)c1ccc(C)nc1', 'human Edg-1(S1P1) (Homo sapiens, UniProt P21453)', 75.5),
  ('CCn1c(OC)nnc1[C@@H](C)NS(=O)(=O)c1ccc(Br)c(Br)c1', 'human Edg-1(S1P1) (Homo sapiens, UniProt P21453)', 94.3);

I = CCn1c(OCCCO)nnc1[C@@H](C)NS(=O)(=O)c1ccc(Cl)cc1
II = CCOc1nnc([C@@H](C)NS(=O)(=O)c2ccc(F)cc2)n1CC
Record comparison, field inhibition at 10 µM: mark the lower of I and II . Selection: enter the item's label.
II

====

TARGET_OR_TEST_SYSTEM: human Edg-1(S1P1) (Homo sapiens)
Construct: expressed in transfected cells; host or cells: HEK-293
MEASUREMENT_NOTES: Cell system binding test: inhibition of [3H]-S1P binding to Edg-1(S1P1) gene transferred HEK-293 cells
CONDITION_LABEL: test compound 10^-5 M, [3H]-S1P 10 nM, 1 hour, read-out: Edg-1(S1P1) binding inhibition rate (cell system binding test)
Method: Cells (1×10^5 cells/well) obtained as described above were seeded in poly-L-lysine-coated 96-well plates (Corning Incorporated), and then incubated in a 5% carbon dioxide gas incubator for 12 hours at 37° C. with the use of an MEM medium (Invitrogen Corporation) containing 100 U/mL of penicillin, 100 μg/mL of streptomycin, a 1% MEM nonessential amino acid solution, and 10% FCS. […]
MEASUREMENT_NAME: inhibition at 10 µM (%)

INSERT INTO measurements (line_notation, observed) VALUES
  ('CCn1c(OCC(F)(F)F)nnc1[C@@H](C)NS(=O)(=O)c1ccc(F)c(F)c1', 103),
  ('CCn1c(OCC(F)(F)F)nnc1[C@@H](C)NS(=O)(=O)c1cccc(OC)c1', 101),
  ('CCn1c(OCC(F)(F)F)nnc1[C@@H](C)NS(=O)(=O)c1cccc(Cl)c1C', 104),
  ('CCn1c(OC)nnc1[C@H](NS(=O)(=O)c1ccc(Cl)cc1)[C@H](C)O', 88.6),
  ('CCn1c(OC(C)C)nnc1[C@@H](C)NS(=O)(=O)c1ccc(Br)c(C(F)(F)F)c1', 104),
  ('CCc1ccc(S(=O)(=O)N[C@H](C)c2nnc(OCC(F)(F)F)n2CC)cc1', 103),
  ('CCn1c(OC(C)C)nnc1[C@@H](C)NS(=O)(=O)c1cccc(C(F)(F)F)c1', 96.9),
  ('CCn1c(OC(C)C)nnc1[C@@H](C)NS(=O)(=O)c1ccc(C)c(C)c1', 83.5);
